# ASSAYED TARGET: BTK-GFP (Homo sapiens, UniProt Q06187+Q96SW2)
# Construct: expressed in transfected cells; host or cells: HEK293A (Invitrogen R70507), lentiviral transduction with pLenti6-BTK-GFP-Ires-RFP, blasticidin selection
# Sequence (Q06187 whole entry): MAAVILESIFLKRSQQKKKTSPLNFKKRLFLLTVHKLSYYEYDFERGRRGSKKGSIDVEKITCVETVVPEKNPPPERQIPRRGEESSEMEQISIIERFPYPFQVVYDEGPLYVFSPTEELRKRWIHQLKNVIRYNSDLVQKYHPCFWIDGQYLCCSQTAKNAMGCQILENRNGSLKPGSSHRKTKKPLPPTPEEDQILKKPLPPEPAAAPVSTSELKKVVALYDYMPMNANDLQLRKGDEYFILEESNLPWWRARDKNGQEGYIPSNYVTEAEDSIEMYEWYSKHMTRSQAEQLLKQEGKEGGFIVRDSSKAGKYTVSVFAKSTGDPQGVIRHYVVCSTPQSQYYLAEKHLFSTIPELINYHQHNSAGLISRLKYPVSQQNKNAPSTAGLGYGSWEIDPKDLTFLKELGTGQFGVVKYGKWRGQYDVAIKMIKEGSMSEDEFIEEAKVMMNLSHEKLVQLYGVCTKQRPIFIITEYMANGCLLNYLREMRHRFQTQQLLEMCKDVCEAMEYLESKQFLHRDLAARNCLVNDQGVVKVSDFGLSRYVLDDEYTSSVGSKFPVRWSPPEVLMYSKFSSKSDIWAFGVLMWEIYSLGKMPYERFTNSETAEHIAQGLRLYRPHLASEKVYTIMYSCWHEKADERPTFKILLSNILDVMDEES
# Sequence (Q96SW2 whole entry): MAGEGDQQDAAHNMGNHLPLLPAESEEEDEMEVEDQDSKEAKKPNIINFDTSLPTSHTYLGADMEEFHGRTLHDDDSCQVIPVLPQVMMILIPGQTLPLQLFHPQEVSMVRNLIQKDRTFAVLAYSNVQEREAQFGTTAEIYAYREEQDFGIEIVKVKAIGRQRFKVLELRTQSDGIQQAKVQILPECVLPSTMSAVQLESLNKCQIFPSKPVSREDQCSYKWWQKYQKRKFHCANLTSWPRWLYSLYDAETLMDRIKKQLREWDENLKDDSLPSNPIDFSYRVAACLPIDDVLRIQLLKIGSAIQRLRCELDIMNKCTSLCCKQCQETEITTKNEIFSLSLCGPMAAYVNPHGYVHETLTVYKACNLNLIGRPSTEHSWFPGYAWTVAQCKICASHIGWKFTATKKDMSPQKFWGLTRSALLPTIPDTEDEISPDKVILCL
# Sequence (Q16531 whole entry partner): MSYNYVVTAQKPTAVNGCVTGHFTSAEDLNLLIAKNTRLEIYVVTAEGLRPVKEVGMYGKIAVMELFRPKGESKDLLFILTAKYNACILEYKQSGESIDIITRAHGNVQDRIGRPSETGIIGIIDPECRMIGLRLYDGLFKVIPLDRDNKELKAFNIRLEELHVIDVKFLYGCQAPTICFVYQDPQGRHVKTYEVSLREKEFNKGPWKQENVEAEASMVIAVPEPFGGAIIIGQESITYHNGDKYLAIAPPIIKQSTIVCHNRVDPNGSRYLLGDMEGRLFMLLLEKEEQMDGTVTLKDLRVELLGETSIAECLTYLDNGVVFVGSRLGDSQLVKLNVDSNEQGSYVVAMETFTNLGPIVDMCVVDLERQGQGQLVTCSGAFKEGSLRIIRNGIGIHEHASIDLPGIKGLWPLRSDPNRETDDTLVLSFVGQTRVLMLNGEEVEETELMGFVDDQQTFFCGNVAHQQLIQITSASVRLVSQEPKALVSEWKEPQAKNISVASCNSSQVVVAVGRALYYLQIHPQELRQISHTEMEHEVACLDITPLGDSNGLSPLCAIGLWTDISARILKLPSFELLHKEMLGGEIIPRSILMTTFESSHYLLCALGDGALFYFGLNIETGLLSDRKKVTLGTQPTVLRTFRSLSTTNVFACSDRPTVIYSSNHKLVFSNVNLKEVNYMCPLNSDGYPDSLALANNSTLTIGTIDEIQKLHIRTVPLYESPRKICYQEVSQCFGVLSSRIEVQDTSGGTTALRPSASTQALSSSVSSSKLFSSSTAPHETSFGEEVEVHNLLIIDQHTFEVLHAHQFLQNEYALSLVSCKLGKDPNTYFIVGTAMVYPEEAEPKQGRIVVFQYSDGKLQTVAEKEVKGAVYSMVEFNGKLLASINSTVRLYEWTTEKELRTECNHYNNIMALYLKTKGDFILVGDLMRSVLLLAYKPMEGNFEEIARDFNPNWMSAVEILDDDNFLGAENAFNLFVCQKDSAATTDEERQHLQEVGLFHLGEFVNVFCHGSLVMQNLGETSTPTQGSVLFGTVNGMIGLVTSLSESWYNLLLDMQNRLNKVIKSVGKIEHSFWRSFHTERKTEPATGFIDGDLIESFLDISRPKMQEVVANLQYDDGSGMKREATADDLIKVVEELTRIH
# PROTOCOL TEXT: BTK-GFP protein abundance flow cytometry assay in HEK293A cells
# Assay type: cell-based
# MEASUREMENT CONTEXT: HEK293A BTK-GFP-iresRFP cells, 24 h, GFP signal by flow cytometry; concentration at which 50% maximal degradation was observed
METRIC NAME: DC50 (nM)

molecule="COc1ccc(C(=O)N2CCC(CCN3CCN(Cc4ccc(-c5cc6c(-c7cc(F)cc(NC(=O)c8ccc(C(C)(C)O)cc8F)c7C)ncnc6[nH]5)cc4)CC3)CC2)cc1N1CCC(=O)NC1=O [Compound 17]" readout_units=nM result_value=2.3
molecule="COc1ccc(C(=O)N2CCC(OC3CCN(CCc4ccc(-c5cc6c(-c7cc(F)cc(NC(=O)c8ccc(C(C)(C)O)cc8F)c7C)ncnc6[nH]5)cc4)CC3)CC2)cc1N1CCC(=O)NC1=O [Compound 34]" readout_units=nM result_value=3.9
molecule="Cc1ccc(C(=O)N2CCC3(CCN(Cc4ccc(-c5cc6c(-c7cc(F)cc(NC(=O)c8ccc(C(C)(C)O)cc8F)c7C)ncnc6[nH]5)cc4)CC3)CC2)cc1N1CCC(=O)NC1=O [Compound 27]" readout_units=nM result_value=1.5
